# tgt: huPA-H99Y (Homo sapiens, UniProt P00749, H272Y)
# Construct: To ensure that the uPAs purified from the conditioned media were completely in the two-chain form, they were treated with plasmin; hexa-His (C); made in house; host or cells: HEK293 6E suspension cells
# experiment_summary: Ki for inhibition of huPA-H99Y, chromogenic substrate S-2444
# Type: biochemical
# conditions_used: 37°C; means ± S.D.; read-out: K i for inhibition of huPA-H99Y
Bridge positions count the residues as written; N and C are the ends. Square brackets hold non-standard residues; d marks the D form. Peptide text beside a SMILES is read from it. Ala(1-amidino-4-piperidyl) = N=C(N)N1CCC(C[C@H](N)C(=O)O)CC1; Phe(4-guanidino) = N=C(N)Nc1ccc(C[C@H](N)C(=O)O)cc1
Quick reference for Ki among some compounds
Report only the number, with the unit µM understood.

Would you please look over these solved cases?
CC(=O)N[C@H]1CSSC[C@@H](C(N)=O)NC(=O)[C@H](C)NC(=O)[C@H](CC(C)C)NC(=O)[C@H](Cc2ccc(O)cc2)NC(=O)[C@H](CC2CCN(C(=N)N)CC2)NC(=O)[C@H](CO)NC(=O)[C@H](Cc2ccc(O)cc2)NC(=O)[C@H](C)NC(=O)[C@@H]2CCCN2C1=O [Mupain-1-16 D9A] (Ac-CPAYS[Ala(1-amidino-4-piperidyl)]YLAC-NH2; disulfide 1-10)
0.309
CC(=O)N[C@H]1CSSC[C@@H](C(N)=O)NC(=O)[C@H](CC(=O)O)NC(=O)[C@H](CC(C)C)NC(=O)[C@H](C)NC(=O)[C@H](CCCNC(=N)N)NC(=O)[C@H](CO)NC(=O)[C@H](Cc2ccc(O)cc2)NC(=O)[C@H](C)NC(=O)[C@@H]2CCCN2C1=O [Mupain-1 Y7A, CPAYSRALDC] (Ac-CPAYSRALDC-NH2; disulfide 1-10)
44
CC(=O)N[C@H]1CSSC[C@@H](C(N)=O)NC(=O)[C@H](C)NC(=O)[C@H](CC(C)C)NC(=O)[C@H](Cc2ccc(O)cc2)NC(=O)[C@H](CCCNC(=N)N)NC(=O)[C@H](CO)NC(=O)[C@H](Cc2ccc(O)cc2)NC(=O)[C@H](C)NC(=O)[C@@H]2CCCN2C1=O [Mupain-1 D9A, CPAYSRYLAC] (Ac-CPAYSRYLAC-NH2; disulfide 1-10)
5.99

Next:
Entry CC(=O)N[C@H]1CSSC[C@@H](C(N)=O)NC(=O)[C@H](C)NC(=O)[C@H](CC(C)C)NC(=O)[C@H](Cc2ccc(O)cc2)NC(=O)[C@H](Cc2ccc(NC(=N)N)cc2)NC(=O)[C@H](CO)NC(=O)[C@H](Cc2ccc(O)cc2)NC(=O)[C@H](C)NC(=O)[C@@H]2CCCN2C1=O [Mupain-1-12 D9A, CPAYS[4-guanidino-phenyl-alanine]YLAC] (Ac-CPAYS[Phe(4-guanidino)]YLAC-NH2; disulfide 1-10; N-terminus assumed) ; Ki = 0.186

* * *

# tgt: huPA-H99Y R35A (Homo sapiens, UniProt P00749, H272Y/R198A)
# Construct: To ensure that the uPAs purified from the conditioned media were completely in the two-chain form, they were treated with plasmin; hexa-His (C); made in house; host or cells: HEK293 6E suspension cells
# experiment_summary: Ki for inhibition of huPA-H99Y-R35A, chromogenic substrate
# Assay type: biochemical
# conditions_used: 37°C; means ± S.D.; read-out: K i for inhibition of huPA-H99Y-R35A
Bridge positions count the residues as written; N and C are the ends. Square brackets hold non-standard residues; d marks the D form. Peptide text beside a SMILES is read from it. Ala(1-amidino-4-piperidyl) = N=C(N)N1CCC(C[C@H](N)C(=O)O)CC1; Phe(4-guanidino) = N=C(N)Nc1ccc(C[C@H](N)C(=O)O)cc1
Each record is given criterion met if its reported Ki is strictly below 3000 nM. Records at or above 3000 nM are given criterion not met.

Incoming: Below 3000 nM on Ki? Entry CC(=O)N[C@H]1CSSC[C@@H](C(N)=O)NC(=O)[C@H](C)NC(=O)[C@H](CC(C)C)NC(=O)[C@H](Cc2ccc(O)cc2)NC(=O)[C@H](CC2CCN(C(=N)N)CC2)NC(=O)[C@H](CO)NC(=O)[C@H](Cc2ccc(O)cc2)NC(=O)[C@H](C)NC(=O)[C@@H]2CCCN2C1=O [Mupain-1-16 D9A] (Ac-CPAYS[Ala(1-amidino-4-piperidyl)]YLAC-NH2; disulfide 1-10)
Outgoing: criterion met

Incoming: Below 3000 nM on Ki? Entry CC(=O)N[C@H]1CSSC[C@@H](C(N)=O)NC(=O)[C@H](CC(=O)O)NC(=O)[C@H](CC(C)C)NC(=O)[C@H](Cc2ccc(O)cc2)NC(=O)[C@H](Cc2ccc(NC(=N)N)cc2)NC(=O)[C@H](CO)NC(=O)[C@H](Cc2ccc(O)cc2)NC(=O)[C@H](C)NC(=O)[C@@H]2CCCN2C1=O [Mupain-1-12, CPAYS[4-guanidino-phenyl-alanine]YLDC] (Ac-CPAYS[Phe(4-guanidino)]YLDC-NH2; disulfide 1-10)
Outgoing: criterion not met

Incoming: Below 3000 nM on Ki? Entry CC(=O)N[C@H]1CSSC[C@@H](C(N)=O)NC(=O)[C@H](CC(=O)O)NC(=O)[C@H](CC(C)C)NC(=O)[C@H](Cc2ccc(O)cc2)NC(=O)[C@H](CC2CCN(C(=N)N)CC2)NC(=O)[C@H](CO)NC(=O)[C@H](Cc2ccc(O)cc2)NC(=O)[C@H](C)NC(=O)[C@@H]2CCCN2C1=O [Mupain-1-16] (Ac-CPAYS[Ala(1-amidino-4-piperidyl)]YLDC-NH2; disulfide 1-10)
Outgoing: criterion met

Incoming: Below 3000 nM on Ki? Entry CC(=O)N[C@H]1CSSC[C@@H](C(N)=O)NC(=O)[C@H](C)NC(=O)[C@H](CC(C)C)NC(=O)[C@H](Cc2ccc(O)cc2)NC(=O)[C@H](CCCNC(=N)N)NC(=O)[C@H](CO)NC(=O)[C@H](Cc2ccc(O)cc2)NC(=O)[C@H](C)NC(=O)[C@@H]2CCCN2C1=O [Mupain-1 D9A, CPAYSRYLAC] (Ac-CPAYSRYLAC-NH2; disulfide 1-10)
Outgoing: criterion met

Incoming: Below 3000 nM on Ki? Entry CC(=O)N[C@H]1CSSC[C@@H](C(N)=O)NC(=O)[C@H](C)NC(=O)[C@H](CC(C)C)NC(=O)[C@H](Cc2ccc(O)cc2)NC(=O)[C@H](Cc2ccc(NC(=N)N)cc2)NC(=O)[C@H](CO)NC(=O)[C@H](Cc2ccc(O)cc2)NC(=O)[C@H](C)NC(=O)[C@@H]2CCCN2C1=O [Mupain-1-12 D9A, CPAYS[4-guanidino-phenyl-alanine]YLAC] (Ac-CPAYS[Phe(4-guanidino)]YLAC-NH2; disulfide 1-10; N-terminus assumed)
Outgoing: criterion met

* * *

# tgt: huPA-H99Y (Homo sapiens, UniProt P00749, H272Y)
# Construct: To ensure that the uPAs purified from the conditioned media were completely in the two-chain form, they were treated with plasmin; hexa-His (C); made in house; host or cells: HEK293 6E suspension cells
# experiment_summary: Surface plasmon resonance analysis of peptide binding to huPA-H99Y
# conditions_used: SPR, 25°C, pH 7.4
Bridge positions count the residues as written; N and C are the ends. Square brackets hold non-standard residues; d marks the D form. Peptide text beside a SMILES is read from it. Ala(1-amidino-4-piperidyl) = N=C(N)N1CCC(C[C@H](N)C(=O)O)CC1; Phe(4-guanidino) = N=C(N)Nc1ccc(C[C@H](N)C(=O)O)cc1
property_name: k on, huPA-H99Y

Would you please look over these solved cases?
CC(=O)N[C@H]1CSSC[C@@H](C(N)=O)NC(=O)[C@H](C)NC(=O)[C@H](CC(C)C)NC(=O)[C@H](Cc2ccc(O)cc2)NC(=O)[C@H](Cc2ccc(NC(=N)N)cc2)NC(=O)[C@H](CO)NC(=O)[C@H](Cc2ccc(O)cc2)NC(=O)[C@H](C)NC(=O)[C@@H]2CCCN2C1=O [Mupain-1-12 D9A, CPAYS[4-guanidino-phenyl-alanine]YLAC] (Ac-CPAYS[Phe(4-guanidino)]YLAC-NH2; disulfide 1-10; N-terminus assumed)
5.93±0.33 (3) M^-1s^-1, ×10^-5
CC(=O)N[C@H]1CSSC[C@@H](C(N)=O)NC(=O)[C@H](CC(=O)O)NC(=O)[C@H](CC(C)C)NC(=O)[C@H](Cc2ccc(O)cc2)NC(=O)[C@H](CCCNC(=N)N)NC(=O)[C@H](CO)NC(=O)[C@H](Cc2ccc(O)cc2)NC(=O)[C@H](C)NC(=O)[C@@H]2CCCN2C1=O [Mupain-1, CPAYSRYLDC] (Ac-CPAYSRYLDC-NH2; disulfide 1-10)
0.569±0.103 (4) M^-1s^-1, ×10^-5

Entry CC(=O)N[C@H]1CSSC[C@@H](C(N)=O)NC(=O)[C@H](CC(=O)O)NC(=O)[C@H](CC(C)C)NC(=O)[C@H](Cc2ccc(O)cc2)NC(=O)[C@H](Cc2ccc(NC(=N)N)cc2)NC(=O)[C@H](CO)NC(=O)[C@H](Cc2ccc(O)cc2)NC(=O)[C@H](C)NC(=O)[C@@H]2CCCN2C1=O [Mupain-1-12, CPAYS[4-guanidino-phenyl-alanine]YLDC] (Ac-CPAYS[Phe(4-guanidino)]YLDC-NH2; disulfide 1-10) ; k on, huPA-H99Y = 2.06±0.15 (4) M^-1s^-1, ×10^-5

Entry CC(=O)N[C@H]1CSSC[C@@H](C(N)=O)NC(=O)[C@H](CC(=O)O)NC(=O)[C@H](CC(C)C)NC(=O)[C@H](Cc2ccc(O)cc2)NC(=O)[C@H](CC2CCN(C(=N)N)CC2)NC(=O)[C@H](CO)NC(=O)[C@H](Cc2ccc(O)cc2)NC(=O)[C@H](C)NC(=O)[C@@H]2CCCN2C1=O [Mupain-1-16] (Ac-CPAYS[Ala(1-amidino-4-piperidyl)]YLDC-NH2; disulfide 1-10) ; k on, huPA-H99Y = 1.07±0.15 (4) M^-1s^-1, ×10^-5

Entry CC(=O)N[C@H]1CSSC[C@@H](C(N)=O)NC(=O)[C@H](C)NC(=O)[C@H](CC(C)C)NC(=O)[C@H](Cc2ccc(O)cc2)NC(=O)[C@H](CC2CCN(C(=N)N)CC2)NC(=O)[C@H](CO)NC(=O)[C@H](Cc2ccc(O)cc2)NC(=O)[C@H](C)NC(=O)[C@@H]2CCCN2C1=O [Mupain-1-16 D9A] (Ac-CPAYS[Ala(1-amidino-4-piperidyl)]YLAC-NH2; disulfide 1-10) ; k on, huPA-H99Y = 4.65±0.27 (4) M^-1s^-1, ×10^-5

Entry CC(=O)N[C@H]1CSSC[C@@H](C(N)=O)NC(=O)[C@H](C)NC(=O)[C@H](CC(C)C)NC(=O)[C@H](Cc2ccc(O)cc2)NC(=O)[C@H](CCCNC(=N)N)NC(=O)[C@H](CO)NC(=O)[C@H](Cc2ccc(O)cc2)NC(=O)[C@H](C)NC(=O)[C@@H]2CCCN2C1=O [Mupain-1 D9A, CPAYSRYLAC] (Ac-CPAYSRYLAC-NH2; disulfide 1-10) ; k on, huPA-H99Y = 2.60±0.20 (3) M^-1s^-1, ×10^-5
